# TGT: T1, ANTIBODY EXPRESSION CONTROL
# T1 construct: also called mouse anti-canine antibody (capture reagent of the expression control ELISA)
# METHOD DESCRIPTION: SPR Biacore, expression control
REPORTED METRIC: kon (M⁻¹ s⁻¹)
The reply should be a number in M⁻¹ s⁻¹, with the unit left off.

BINDER	kon (M⁻¹ s⁻¹)
Mu_10F07_VH (SEQ ID NO: 39)_Y107A (antibody, V domains shown) VH: DVKLVESGEGLVKPGGSLKLSCAASGFTFSSYAMSWVRQTPEKRLEWVTYISSGGDYFYYADTVKGRFTISRDNARNTLYLQMSSLKSEDTAMYYCTRDPITGTFAAWGQGTLVTVSA VL: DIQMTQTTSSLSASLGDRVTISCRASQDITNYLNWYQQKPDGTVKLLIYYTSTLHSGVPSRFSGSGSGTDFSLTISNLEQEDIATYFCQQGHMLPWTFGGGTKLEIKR	99500
Mu_19F07_VH (SEQ ID NO: 47)_Y33A (antibody, V domains shown) VH: EVKLVESEGGLVQPGSSMKLSCTASGFTFSDYAMAWVRQVPEKGLEWVANINYDGSSTYYLDSLKSRFIISRDNAKNILYLQMSSLKSEDTATYYCARGLTWDFDVWGTGTTVTVSS VL: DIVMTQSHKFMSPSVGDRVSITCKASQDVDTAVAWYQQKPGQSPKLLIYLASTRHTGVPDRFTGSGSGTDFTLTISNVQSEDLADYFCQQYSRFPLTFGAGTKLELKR	301000
Mu_09E09_VH (SEQ ID NO: 35)_D99A (antibody, V domains shown) VH: DVKLVESGEGLVKPGGSLKLSCAASGFTFSSYAMSWVRQTPEKRLEWVAYISSGGDYIYYADTVKGRFTISRDNARNTLYLQMSSLKSEDTAMYYCTRAPITGTFAYWGQGTLVTVSA VL: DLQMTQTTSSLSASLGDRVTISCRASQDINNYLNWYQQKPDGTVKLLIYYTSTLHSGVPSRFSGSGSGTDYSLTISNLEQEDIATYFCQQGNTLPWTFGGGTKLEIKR	314000
Mu_02D09_VH (SEQ ID NO: 31)_S52A (antibody, V domains shown) VH: EVQLVESGGGLVKPGGSLTLSCAASGFTFSDYGMHWLRQAPEKGLEWVAYIASGSRAVFFADTVKGRFTISRDNAKNTLFLQMTSLRSDDTAMYYCARDRYDGRGFAYWGQGTLVTVSA VL: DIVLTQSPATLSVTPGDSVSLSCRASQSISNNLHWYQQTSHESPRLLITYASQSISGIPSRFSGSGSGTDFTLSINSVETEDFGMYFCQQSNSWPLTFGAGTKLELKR	323000

Query: Requested read-out: kon. Entry: Mu_02D09_VL (SEQ ID NO: 33)_L96A (antibody, V domains shown) VH: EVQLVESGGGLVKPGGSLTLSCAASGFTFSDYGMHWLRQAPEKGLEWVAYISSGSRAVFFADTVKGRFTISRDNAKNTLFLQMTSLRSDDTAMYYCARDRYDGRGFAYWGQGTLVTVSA VL: DIVLTQSPATLSVTPGDSVSLSCRASQSISNNLHWYQQTSHESPRLLITYASQSISGIPSRFSGSGSGTDFTLSINSVETEDFGMYFCQQSNSWPATFGAGTKLELKR
Result: 370000
